These data points were gathered from patent US9045491B2.

assay_explanation: Safety evaluation: single dose 100 mg/kg by gavage, one week observation
Type: in vivo, ICR mouse
reported_conditions: normal ICR mouse, 100 mg/kg single dose, 3 d after administration
measurement_type: body weight (g)
The answer is to be given in g; state only the numeric part.

*Q* # input molecule: N#Cc1ccccc1Cn1c(N2CCC[C@@H](N)C2)nc2cc(C(Br)Br)sc2c1=O [DC291411] ; wanted: its body weight
*A* 31.0

*Q* Also, COC(=O)c1csc2c(=O)n(Cc3ccccc3C#N)c(N3CCC[C@@H](N)C3)nc12 [DC291009] please.
*A* 31.8

*Q* Further, for COC(=O)c1cc2nc(N3CCCC(N)C3)n(Cc3ccccc3C#N)c(=O)c2s1 (stereo not shown) [DC291407] ?
*A* 29.7

*Q* Repeat with N#Cc1ccccc1Cn1c(N2CCC[C@@H](N)C2)nc2c(CO)csc2c1=O [DC291004]
*A* 31.0
